Measured cell viability, listed per entry for reference.
tested on: Mel-DCC-11-R; assay: cell viability relative to DMSO control (fraction of DMSO control); higher = less cytotoxic, active = 0.8 or less; conditions: 1 µM; 120 h; vemurafenib co-treatment 0 µM
quantity_kind: cell viability

compound	quantity_kind	experimental_result
COC(=O)N[C@@H](C)CNc1nccc(-c2cn(C(C)C)nc2-c2cc(Cl)cc(NS(C)(=O)=O)c2F)n1 [Encorafenib]	cell viability	0.802
CCCCCCCCCCCCCCCCCCOCC(O)CO (stereo not drawn) [Batyl alcohol]	cell viability	0.92
NC1CCCCC1N.O=C([O-])C(=O)[O-].[Pt+2] (stereo not drawn) [Oxaliplatin]	cell viability	1.01
CC(=O)c1c(C)c2cnc(Nc3ccc(N4CCNCC4)cn3)nc2n(C2CCCC2)c1=O.O=S(=O)(O)CCO [Palbociclib Isethionate]	cell viability	1.6
CNC(=O)c1cc(Oc2ccc(NC(=O)Nc3ccc(Cl)c(C(F)(F)F)c3)cc2)ccn1.Cc1ccc(S(=O)(=O)O)cc1 [Sorafenib tosylate]	cell viability	1.02
CC#CC(=O)N1CCC[C@H]1c1nc(-c2ccc(C(=O)Nc3ccccn3)cc2)c2c(N)nccn12 [Acalabrutinib]	cell viability	1.04
CC1(C)O[C@H]2CC(=O)OC[C@]23[C@H]2CC[C@@]4(C)[C@H](c5ccoc5)OC(=O)[C@H]5O[C@]54[C@]2(C)C(=O)C[C@@H]13 [Limonin]	cell viability	0.857
CO[C@H]1C[C@@H]2CC[C@@H](C)[C@@](O)(O2)C(=O)C(=O)N2CCCC[C@H]2C(=O)O[C@H]([C@H](C)C[C@@H]2CC[C@@H](O)[C@H](OC)C2)CC(=O)[C@H](C)/C=C(\C)[C@@H](O)[C@@H](OC)C(=O)[C@H](C)C[C@H](C)/C=C/C=C/C=C/1C [Rapamycin]	cell viability	1.54
CO[C@H]1C=CO[C@@]2(C)Oc3c(C)c(O)c4c(O)c(c(/C=N/N5CCN(C)CC5)c(O)c4c3C2=O)NC(=O)/C(C)=C\C=C/[C@H](C)[C@H](O)[C@@H](C)[C@@H](O)[C@@H](C)[C@H](OC(C)=O)[C@@H]1C [Rifampicin]	cell viability	0.882
COc1cc2nccc(Oc3ccc(NC(=O)C4(C(=O)Nc5ccc(F)cc5)CC4)cc3)c2cc1OC [Cabozantinib]	cell viability	1.1
CC1=C(/C=C/C(C)=C/C=C/C(C)=C/C(=O)O)C(C)(C)CCC1 [Tretinoin]	cell viability	0.946
COc1cc(N2CCC(N3CCN(C)CC3)CC2)ccc1Nc1ncc(Cl)c(Nc2ccccc2P(C)(C)=O)n1 [Brigatinib]	cell viability	1.08
CC1=C(/C=C/C(C)=C/C=C/C(C)=C\C(=O)O)C(C)(C)CCC1 [Isotretinoin]	cell viability	0.938

###

tested on: Mel-DCC-11-R; assay: cell viability relative to DMSO control (fraction of DMSO control); higher = less cytotoxic, active = 0.8 or less; details: 1 µM; 120 h; vemurafenib co-treatment 8 µM
Doc: threshold 0.9 (exclusive). Items with cell viability beneath it return Condition met; others return Condition not met.

compound	group_label
C[C@]12CC[C@@H]3c4ccc(O)cc4C[C@@H](CCCCCCCCCS(=O)CCCC(F)(F)C(F)(F)F)[C@H]3[C@@H]1CC[C@@H]2O (stereo partly drawn)	Condition met
COc1cc2c(Oc3ccc4[nH]c(C)cc4c3F)ncnc2cc1OCCCN1CCCC1	Condition met
O=c1[nH]c(=O)n(C2CCCO2)cc1F (stereo not drawn)	Condition met
CCC1=C[C@@H]2CN(C1)Cc1c([nH]c3ccccc13)[C@@](C(=O)OC)(c1cc3c(cc1OC)N(C)[C@H]1[C@@](O)(C(=O)OC)[C@H](OC(C)=O)[C@]4(CC)C=CCN5CC[C@]31[C@@H]54)C2.O=C(O)[C@H](O)[C@@H](O)C(=O)O.O=C(O)[C@H](O)[C@@H](O)C(=O)O [Vinorelbine Tartrate]	Condition met
C[C@@H]1C[C@H]2[C@@H]3CCC4=CC(=O)C=C[C@]4(C)[C@@]3(F)[C@@H](O)C[C@]2(C)[C@@]1(O)C(=O)COP(=O)([O-])[O-].[Na+].[Na+] [Dexamethasone Sodium Phosphate]	Condition not met
Nc1ncnc2c1ncn2[C@@H]1O[C@H](CO)[C@@H](O)[C@@H]1O	Condition not met
CNC(=O)c1c(C)oc2cc(Oc3ncnc4cc(OC)c(OC)cc34)ccc12	Condition not met
COc1cc(C[C@H]2C(=O)OC[C@@H]2Cc2ccc(OC)c(OC)c2)ccc1O	Condition met
CCN(CC)C(=S)SSC(=S)N(CC)CC	Condition met
CC(/C=C/C=C(\C)C(=O)O[C@@H]1O[C@H](CO[C@@H]2O[C@H](CO)[C@@H](O)[C@H](O)[C@H]2O)[C@@H](O)[C@H](O)[C@H]1O)=C\C=C\C=C(C)\C=C\C=C(/C)C(=O)O[C@@H]1O[C@H](CO[C@@H]2O[C@H](CO)[C@@H](O)[C@H](O)[C@H]2O)[C@@H](O)[C@H](O)[C@H]1O	Condition not met
COc1ccc(C[C@H](N)C(=O)N[C@H]2[C@@H](O)[C@H](n3cnc4c(N(C)C)ncnc43)O[C@@H]2CO)cc1.Cl.Cl [Puromycin dihydrochloride]	Condition met
Nc1nc(F)nc2c1ncn2[C@@H]1O[C@H](CO)[C@@H](O)[C@@H]1O	Condition not met
